Please provide measured interaction score for the entries that follow.
Molecular target: T1, P6A
T1 chain: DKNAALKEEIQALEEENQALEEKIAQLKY
Test: two-hybrid library CCNG1;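 also: natural log of median RNA to DNA barcode read ratio; higher means stronger binding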
Answers are plain numbers.

Field: example entries. Status: answers known.
DENQALEQEIAQLEQEIAALEQKNAQLKY [P11A] ... -0.873
DKNAQLKEENAALEEKIQQLKEKIQALKY [P10A] ... 0.00329
DKIAQLKQKIQALKQENQQLEEENAALEY [P4A] ... -1.35

For the 5 binders below, give their interaction score values.
1. DKNAQLKEKIAALKEKIQQLKEENQALEY [P12A]
2. DKNAALKEEIQALEEENQALEEKIAQLKY [P6A]
3. DEIQQLEEEIAQLEQKNAALKEKNQALKY [P3A]
4. DEIQALEEENAQLEQENAALEEEIAQLEY [P1A]
5. DKIAQLKEKNAALKEKNQQLKEKIQALKY [P2A]

Response:
[-1.16, -0.792, -0.905, -1.54, -0.59]

Data origin: paper PMC10397247
